Record: IC50 reported on Voltage-gated inwardly rectifying potassium channel KCNH2 (Homo sapiens).

>  <compound>
COc1nc2ccc(C#N)cc2cc1[C@@H](c1cccc(C)c1F)[C@@](O)(CCN(C)C)c1cc(SC)nc(SC)c1 (racemic)

>  <IC50>
> 10 µM

$$$$
>  <compound>
COc1cc([C@](O)(CCN(C)C)[C@@H](c2cc3cc(C#N)ccc3nc2OC)c2cccc(C)c2F)cc(OC(F)F)n1 (racemic)

>  <IC50>
> 30 µM

$$$$
>  <compound>
COc1cc([C@](O)(CCN(C)C)[C@@H](c2cc3cc(Br)ccc3nc2OC)c2cccc(OC)c2F)cc(S(C)(=O)=O)n1 (racemic)

>  <IC50>
1.8 µM

$$$$
>  <compound>
COc1cc([C@](O)(CCN(C)C)[C@@H](c2cc3cc(Br)ccc3nc2OC)c2cccc(OC)c2F)cc(OC(F)F)n1 (racemic)

>  <IC50>
> 30 µM

$$$$
>  <compound>
COc1cc([C@](O)(CCN(C)C)[C@@H](c2cc3cc(C#N)ccc3nc2OC)c2cccc(OC)c2F)cc(SC)n1 (racemic)

>  <IC50>
> 10 µM

$$$$
>  <compound>
CCSc1cc([C@](O)(CCN(C)C)[C@H](c2ccccc2)c2cc3cc(Br)ccc3nc2OC)cc(SCC)n1 (racemic)

>  <IC50>
> 30 µM

$$$$
>  <compound>
COc1cc([C@](O)(CCN(C)C)[C@@H](c2cc3cc(C#N)ccc3nc2OC)c2ccnc(OC)c2OC)cc(OC(F)F)n1 (racemic)

>  <IC50>
7 µM

$$$$
>  <compound>
COc1cc([C@](O)(CCN(C)C)[C@@H](c2cc3cc(Br)ccc3nc2OC)c2ccnc(OC)c2OC)cc(OC(C)C)n1 (racemic)

>  <IC50>
17 µM

$$$$
>  <compound>
CCOc1cc([C@](O)(CCN(C)C)[C@@H](c2cc3cc(Br)ccc3nc2OC)c2c(OC)cncc2OC)cc(OC(C)C)n1 (racemic)

>  <IC50>
> 10 µM

$$$$
>  <compound>
CCSc1cc([C@](O)(CCN(C)C)[C@@H](c2cc3cc(C#N)ccc3nc2OC)c2cccc(C)c2F)cc(SCC)n1 (racemic)

>  <IC50>
> 10 µM

$$$$
>  <compound>
CCSc1cc([C@](O)(CCN(C)C)[C@@H](c2cc3cc(Br)ccc3nc2OC)c2ccnc(OC)c2OC)cc(SCC)n1 (racemic)

>  <IC50>
9.2 µM

$$$$
>  <compound>
CCCOc1cc([C@](O)(CCN(C)C)[C@H](c2cccc(C)c2)c2cc3cc(Br)ccc3nc2OC)cc(OC)n1 (racemic)

>  <IC50>
> 10 µM

$$$$
>  <compound>
CCOc1cc([C@](O)(CCN(C)C)[C@@H](c2cc3cc(Br)ccc3nc2OC)c2cccc(OC)c2F)cc(OC)n1 (racemic)

>  <IC50>
> 30 µM

$$$$
>  <compound>
CCSc1cc([C@](O)(CCN(C)C)[C@@H](c2cc3cc(Br)ccc3nc2OC)c2ccnc(OC)c2OC)cc(N(C)C)n1 (racemic)

>  <IC50>
> 10 µM

$$$$

* * *

Consider the following compounds and their measured pIC50 readings.
Biological target: Voltage-gated inwardly rectifying potassium channel KCNH2 (Homo sapiens, UniProt Q12809)
Sequence (Q12809 whole entry): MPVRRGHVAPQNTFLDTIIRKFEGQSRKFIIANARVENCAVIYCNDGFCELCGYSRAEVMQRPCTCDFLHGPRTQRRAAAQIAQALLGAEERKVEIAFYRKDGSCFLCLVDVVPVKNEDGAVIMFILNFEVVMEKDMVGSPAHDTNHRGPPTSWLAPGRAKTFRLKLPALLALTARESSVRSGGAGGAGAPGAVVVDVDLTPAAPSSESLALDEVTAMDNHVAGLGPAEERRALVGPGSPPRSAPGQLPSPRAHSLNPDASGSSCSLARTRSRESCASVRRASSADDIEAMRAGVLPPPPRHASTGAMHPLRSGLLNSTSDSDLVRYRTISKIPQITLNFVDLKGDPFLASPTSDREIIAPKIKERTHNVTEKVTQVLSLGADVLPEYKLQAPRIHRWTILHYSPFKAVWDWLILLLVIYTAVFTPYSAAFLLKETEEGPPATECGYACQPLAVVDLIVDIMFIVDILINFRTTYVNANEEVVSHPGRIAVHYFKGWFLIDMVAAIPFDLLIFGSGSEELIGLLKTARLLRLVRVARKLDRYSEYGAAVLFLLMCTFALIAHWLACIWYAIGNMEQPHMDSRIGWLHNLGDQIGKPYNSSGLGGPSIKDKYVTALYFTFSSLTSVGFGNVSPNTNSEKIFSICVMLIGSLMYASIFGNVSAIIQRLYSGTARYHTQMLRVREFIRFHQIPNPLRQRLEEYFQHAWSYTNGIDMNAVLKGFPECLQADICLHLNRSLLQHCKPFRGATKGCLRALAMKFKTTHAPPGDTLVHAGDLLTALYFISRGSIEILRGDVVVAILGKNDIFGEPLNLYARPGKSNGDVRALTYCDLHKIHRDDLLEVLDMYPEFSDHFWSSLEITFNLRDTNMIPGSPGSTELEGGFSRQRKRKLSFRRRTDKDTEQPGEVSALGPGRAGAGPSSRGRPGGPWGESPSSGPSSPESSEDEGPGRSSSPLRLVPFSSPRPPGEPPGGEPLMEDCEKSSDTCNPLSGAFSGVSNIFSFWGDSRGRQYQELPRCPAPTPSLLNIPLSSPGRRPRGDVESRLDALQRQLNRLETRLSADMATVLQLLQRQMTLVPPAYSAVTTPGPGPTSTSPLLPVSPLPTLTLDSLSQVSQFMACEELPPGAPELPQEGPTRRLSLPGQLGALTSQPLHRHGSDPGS
pIC50: −log10 of the molar value.

>  <compound>
COc1cccc([C@H](c2cc3cc(Br)ccc3nc2OC)[C@@](O)(CCN(C)C)c2cc(SC)nc(SC)c2)c1F (racemic)

>  <target system>
Voltage-gated inwardly rectifying potassium channel KCNH2 (Homo sapiens, UniProt Q12809)

>  <pIC50>
< 5.00

$$$$
>  <compound>
COc1cccc([C@H](c2cc3cc(C#N)ccc3nc2OC)[C@@](O)(CCN(C)C)c2cc(SC)nc(SC)c2)c1F (racemic)

>  <target system>
Voltage-gated inwardly rectifying potassium channel KCNH2 (Homo sapiens, UniProt Q12809)

>  <pIC50>
5.29

$$$$
>  <compound>
CCOc1cc([C@](O)(CCN(C)C)[C@H](c2cccc(C)c2)c2cc3cc(Br)ccc3nc2OC)cc(OC)n1 (racemic)

>  <target system>
Voltage-gated inwardly rectifying potassium channel KCNH2 (Homo sapiens, UniProt Q12809)

>  <pIC50>
< 5.00

$$$$
>  <compound>
CCSc1cc([C@](O)(CCN(C)C)[C@@H](c2cc3cc(C#N)ccc3nc2OC)c2cccc3c2OCO3)cc(SCC)n1 (racemic)

>  <target system>
Voltage-gated inwardly rectifying potassium channel KCNH2 (Homo sapiens, UniProt Q12809)

>  <pIC50>
< 5.00

$$$$

* * *

Consider the following compounds and their measured bioavailability readings.
Test: Oral bioavailability in CD-1 mouse at 10 mg/kg administered via gavage as single dose
Type: ADME, organism-based
Details: in vivo
quantity name: bioavailability

>  <compound>
CCOc1cc([C@](O)(CCN(C)C)[C@@H](c2cc3cc(Br)ccc3nc2OC)c2ccnc(OC)c2OC)cc(OC)n1 (racemic)

>  <reading>
70%

$$$$
>  <compound>
COc1nc2ccc(C#N)cc2cc1[C@@H](c1cccc(C)c1F)[C@@](O)(CCN(C)C)c1cc(SC)nc(SC)c1 (racemic)

>  <reading>
31%

$$$$
>  <compound>
COc1cc([C@](O)(CCN(C)C)[C@@H](c2cc3cc(C#N)ccc3nc2OC)c2ccnc(OC)c2OC)cc(N(C)C)n1 (racemic)

>  <reading>
50%

$$$$
>  <compound>
CCSc1cc([C@](O)(CCN(C)C)[C@@H](c2cc3cc(Br)ccc3nc2OC)c2cccc(OC)c2F)cc(SCC)n1 (racemic)

>  <reading>
25%

$$$$
>  <compound>
COc1cc([C@](O)(CCN(C)C)[C@@H](c2cc3cc(Br)ccc3nc2OC)c2ccnc(OC)c2OC)cc(OC(C)C)n1 (racemic)

>  <reading>
22%

$$$$
>  <compound>
COc1cc([C@](O)(CCN(C)C)[C@@H](c2cc3cc(Br)ccc3nc2OC)c2ccnc(OC)c2OC)cc(OC2CCC2)n1 (racemic)

>  <reading>
56%

$$$$
>  <compound>
CCOc1cc([C@](O)(CCN(C)C)[C@@H](c2cc3cc(Br)ccc3nc2OC)c2ccnc(OC)c2OC)cc(OC(C)C)n1 (racemic)

>  <reading>
58%

$$$$

* * *

Test: Protein binding in human plasma
Assay type: ADME, cell-free
Details: read-out: PPB
Consider the following molecules and their measured fraction unbound readings.

>  <molecule>
COc1cc([C@](O)(CCN(C)C)[C@@H](c2cc3cc(Br)ccc3nc2OC)c2cccc(OC)c2F)cc(OC)n1 (racemic)

>  <fraction unbound>
< 0.005

$$$$
>  <molecule>
COc1nc2ccc(Br)cc2cc1[C@@H](c1ccccc1)[C@@](O)(CCN(C)C)c1cccc2ccccc12

>  <fraction unbound>
< 0.005

$$$$
>  <molecule>
COc1cc([C@](O)(CCN(C)C)[C@@H](c2cc3cc(Br)ccc3nc2OC)c2cc(OC)nc(OC)c2OC)cc(OC)n1 (racemic)

>  <fraction unbound>
< 0.005

$$$$

* * *

Consider the following compounds and their measured bioavailability readings.
Test: Oral bioavailability in CD-1 mouse at 10 mg/kg administered via gavage as single dose
Type: ADME, organism-based
Details: in vivo
quantity name: bioavailability (%)

>  <compound>
COc1cc([C@](O)(CCN(C)C)[C@@H](c2cc3cc(Br)ccc3nc2OC)c2cccc(OC)c2F)cc(OC(F)F)n1 (racemic)

>  <reading>
83

$$$$
>  <compound>
CCSc1cc([C@](O)(CCN(C)C)[C@@H](c2cc3cc(Br)ccc3nc2OC)c2cccc3c2OCO3)cc(SCC)n1 (racemic)

>  <reading>
11

$$$$
>  <compound>
COc1cc([C@](O)(CCN(C)C)[C@@H](c2cc3cc(Br)ccc3nc2OC)c2cccc(OC)c2F)cc(SC)n1 (racemic)

>  <reading>
31

$$$$
>  <compound>
COc1cc([C@](O)(CCN(C)C)[C@@H](c2cc3cc(C#N)ccc3nc2OC)c2ccnc(OC)c2OC)cc(OC(F)F)n1 (racemic)

>  <reading>
43

$$$$

* * *

Experiment: Apparent volume of distribution during terminal phase in CD-1 mouse at 2 to 3 mg/kg, iv administered as single bolus dose
Type: ADME, organism-based
Conditions: in vivo
quantity name: Vz/F (L/kg)

>  <compound>
COc1cc([C@](O)(CCN(C)C)[C@@H](c2cc3cc(Br)ccc3nc2OC)c2cccc(OC)c2F)cc(OC(C)C)n1 (racemic)

>  <quantity name>
Vz/F

>  <reading>
34

$$$$
>  <compound>
CCOc1cc([C@](O)(CCN(C)C)[C@@H](c2cc3cc(Br)ccc3nc2OC)c2c(OC)cncc2OC)cc(OC(C)C)n1 (racemic)

>  <quantity name>
Vz/F

>  <reading>
20

$$$$
>  <compound>
CCOc1cc([C@](O)(CCN(C)C)[C@@H](c2cc3cc(Br)ccc3nc2OC)c2ccnc(OC)c2OC)cc(OC(C)C)n1 (racemic)

>  <quantity name>
Vz/F

>  <reading>
9.1

$$$$
>  <compound>
COc1cc([C@](O)(CCN(C)C)[C@@H](c2cc3cc(C#N)ccc3nc2OC)c2ccnc(OC)c2OC)cc(N(C)C)n1 (racemic)

>  <quantity name>
Vz/F

>  <reading>
14

$$$$
